test: PK analysis in rats; type: in vivo, Sprague Dawley (SD) rats; conditions: Sprague-Dawley, rat, po, 5 mg/kg; SD rats, single intragastric administration, 5 mg/10 ml/kg, plasma; read-out: MRT0-∞
readout: MRT inf (h)
Quick reminder: number only, in h, skip the unit.

1. C=CC(=O)Nc1cc(Nc2nccc(-c3cn(C)c4ccccc34)n2)c(OC)cc1N(C)CCN(C)C [AZD-9291, reference compound]
3.9

Query molecule follows.
Query :: MRT inf lookup needed for `C=CC(=O)Nc1cc(Nc2nccc(-c3cn(C4CC4)c4ccccc34)n2)c(OC)cc1N(C)CCN(C)C` , thanks.
Result :: 3.9
